The measurements presented in this section are drawn from PubChem BioAssay (NCI).

# Tested on: SF-295 CNS
# experimentNotes: NCI-60 one-dose screen, 48 h (100 = growth as untreated, 0 = no growth, -100 = all killed)
# experimentalConditions: 10 µM
About 83,000 compounds went through this panel and 20% of them were active in at least one assay; those are over-represented in the sample as a whole. Active and inactive are the calls of the source. The calls were made as follows: active = growth percent below 10; inactive = the rest.

| compound | experimentalSystem | growth |
| --- | --- | --- |
| CCOS(=O)(=O)c1c(C(C)C)cc(C(C)C)cc1C(C)C | SF-295 CNS | 98.9% (inactive) |
| Fc1ccc(C(c2ccc(F)cc2)C(Cl)Cl)cc1 | SF-295 CNS | 105% (inactive) |
| COc1cc(NC(=O)C2=C(N3CCOCC3)/C(=C/c3ccc(Cl)cc3)CC2)cc(OC)c1OC | SF-295 CNS | 118% (inactive) |
| CCC(c1ccc(OC)cc1)C(CC)c1ccc(O)c(CN2CCN(C)CC2)c1 (stereo not drawn) | SF-295 CNS | 28.9% (inactive) |
| CC[C@@H](C(=O)[C@H](C)[C@H](O)[C@@H](C)[C@H]1O[C@H]([C@@H](CC)C(=O)O)CC[C@H]1C)C1O[C@]2(C=C[C@@H](O)[C@]3(CC[C@@](C)([C@H]4CC[C@](O)(CC)[C@H](C)O4)O3)O2)[C@H](C)C[C@@H]1C (stereo partly drawn) | SF-295 CNS | -12.6% (active) |
| CCCC1(CN2c3ccccc3Sc3ccc(Cl)cc32)CCN(CC)C1 (stereo not drawn) | SF-295 CNS | -89.4% (active) |
| COc1cc(/C=C/c2cc(/C=C/c3ccc(O)c(OC)c3)n(C(=O)Nc3ccccc3Cl)n2)ccc1O | SF-295 CNS | 2.83% (active) |
| COc1ccc(/C(=N\N)C(=O)c2ccccc2)cc1 (tested in a mixture with another compound) | SF-295 CNS | 89% (inactive) |
